System: OVCAR-3
Experiment Notes: NCI tumour cell line growth inhibition, 48 h
Active and inactive are the calls of the source. Cut-off read from the data, not from the text of the source: active = GI50 up to about 1.1 µM and inactive = higher.
In this exercise, the only acceptable responses are active, inactive

>>> cat("COc1ccccc1/C=C(\\C#N)C(=O)c1ccccc1")
"inactive"
>>> cat("CCCSc1cc(Cl)c(C)cc1S(=O)(=O)n1ccnc1O")
"inactive"

# input Hi, do you know how `O=C(NNC(=O)c1nsc2ccccc12)c1ccc(Cl)cc1` came out in this test?
# output inactive

# input Which result was noted for this compound in the test: CC1(c2cccc3ccccc23)OC(=O)c2ccccc21 (stereo not given)
# output inactive

----------
System: COLO 205
Experiment Notes: NCI tumour cell line growth inhibition, 48 h
Calls of active or inactive are those of the source. No stated cut-off is given here; in the data, active = GI50 up to about 1.1 µM and inactive = higher.
Mark one answer only. Choices: 1 (yes) for active, 0 (no) for inactive

Sample answers from the record:
>>> cat("CCOC1CC(=O)c2c(Br)sc(Br)c21 (centres undefined)")
"0 (no)"
>>> cat("Cc1nc2c(n1-c1ccc(Br)cc1)C(=O)c1ccccc1C2=O")
"0 (no)"
>>> cat("COc1ccc(/C=C2\\C=Cc3ccccc32)cc1OC")
"0 (no)"
>>> cat("COC1(C)CP(=O)(OC(C)C)CC(C)=C1Cl (centres undefined)")
"0 (no)"
>>> cat("CC[C@H](NC(=O)OC(C)(C)C)C(=O)NCP(=O)(OCc1ccc([N+](=O)[O-])cc1)OCc1ccc([N+](=O)[O-])cc1")
"0 (no)"
>>> cat("COC1=C(C)C(=O)C2=C(C1=O)C1C3CC4=C(C(=O)C(OC)=C(C)C4=O)C(CNC(=O)C(C)=O)N3C(C#N)C(C2)N1C (centres undefined)")
"1 (yes)"

Now turn to the next compound.
# input Could you check what this test reported for `O=C(Nc1cccc(C(=O)NCCCO)c1)/C(=C/c1ccccc1)NC(=O)c1ccccc1` ?
# output 0 (no)

----------
Tested on: T47D
Experiment Notes: NCI tumour cell line growth inhibition, 48 h
Calls of active or inactive are those of the source. Rule as the data show it: active = GI50 up to about 1.1 µM and inactive = higher.
Pick from 1 for active, -1 for inactive when you respond.

Some solved entries appear below for comparison.
>>> cat("Nn1c(=O)[nH]c2ncn(Cc3ccccc3)c2c1=O")
-1
>>> cat("Brc1ccc2c(c1)-c1nc3nc4c(cc3cc1CC2)CCc1ccc(Br)cc1-4")
-1
>>> cat("COC1=C(C)C(=O)C2=C(C1=O)C1C3CC4=C(C(=O)C(OC)=C(C)C4=O)C(CNC(=O)C(C)=O)N3C(C#N)C(C2)N1C (stereo not drawn)")
1
>>> cat("COc1cc(C(C)(C)C)c(OC(=O)/C=C/C(=O)O/C=C/[N+](=O)[O-])c(C(C)(C)C)c1")
-1
>>> cat("COc1cc(/C=C/c2ccc(O)c(OC)c2)cc(OC)c1")
-1

# input Could you check what this test reported for `CCN(CCCl)CCCCNc1c2ccccc2nc2ccc(OC)cc12` ?
# output 1

# input Short answer needed: outcome of this test for `O=[N+]([O-])/C(C(Cl)=C(Cl)Cl)=C(/Nc1cccc2cccnc12)n1nnc2ccccc21` ?
# output -1

# input Look up the recorded call for CCP(=O)(CC)C(Cl)(Cl)C(O)C(C)(C)C (stereo not drawn) in this test.
# output -1

# input I would be grateful if you could indicate the recorded call for CC1(C)OCC(C2CCC3(C)C4=CCC5C(C)(C)C(O)CCC5(C)C4CCC23C)CC(O)C1O (stereo not drawn) .
# output -1

# input Entry `CC(=O)N(C(C)=O)n1nc2c(n1)C(=O)c1ccccc1C2=O` : call = ?
# output -1

# input Test call, this compound: `CCN1C[C@]2(COC)[C@H](O)C[C@H](OC)[C@]34C1[C@H]([C@H](OC)[C@H]23)[C@]1(OC(C)=O)[C@H]2[C@@H](OC(=O)c3ccccc3)[C@](O)(C[C@H]24)[C@@H](OC)[C@@H]1O`
# output -1

# input Any idea what this test logged for COc1ccc(N)c(C(O)CCNC(C)=O)c1 (stereo not drawn) ?
# output -1

# input What is the recorded call for this compound in the test? Cc1ccc(O)c(C2=CC3=NNC(=O)C3C(c3cccc(Br)c3)C2)c1 (stereo not drawn)
# output -1

----------
Tested on: HT-29
Experiment Notes: NCI tumour cell line growth inhibition, 48 h
The source made the active and inactive calls. Cut-off read from the data, not from the text of the source: active = GI50 up to about 1.1 µM and inactive = higher. Square brackets hold non-standard residues; d marks the D form. Peptide text beside a SMILES is read from it. * marks the point of attachment. ξ: configuration not given here. ξD = NC(CC(=O)O)C(=O)O; Ac3c = NC1(C(=O)O)CC1; Boc = CC(C)(C)OC(=O)*; OtBu = CC(C)(C)O*
Result category, one only: y = active, n = inactive

Example entries and their recorded answers appear below.
>>> cat("NC1=Nc2ccccc2Sc2nc3ccccc3n21")
"n"
>>> cat("O=C(O)c1cc2ccccc2c(/N=N\\c2cc(C(F)(F)F)ccc2Cl)c1O")
"n"
>>> cat("COC(=O)C1(NC(=O)C(CC(=O)OC(C)(C)C)NC(=O)OC(C)(C)C)CC1 (configuration not stated) (Boc-[ξD](OtBu)-[Ac3c]-OMe)")
"n"
>>> cat("COP(=O)(C(/C=C/c1ccccc1)OC(C)=O)[C@@H]1CCCC[C@H]1N(CC(C)(C)C)C(C)=O (some centres not stated)")
"n"
>>> cat("CCC(C)C1NC(=O)C(NC(=O)C(CC(C)C)N(C)C(=O)[C@@H]2C=CCN2C(=O)[C@H](C)O)C(C)OC(=O)[C@H](Cc2ccc(OC)cc2)N(C)C(=O)[C@@H]2CCCN2C(=O)[C@H](CC(C)C)NC(=O)C(C)C(=O)[C@H](C(C)C)OC(=O)CC1O (some centres not stated)")
"y"
>>> cat("C=C1c2nc3ccccc3n2C=C(c2ccccc2)N1c1ccc([N+](=O)[O-])cc1")
"n"
>>> cat("N=C(NNS(=O)(=O)c1ccccc1)Oc1ccc(Cl)cc1")
"n"
>>> cat("CC[C@@]1(O)C(=O)OCc2c1cc1n(c2=O)Cc2cc3cc4c(cc3nc2-1)OCO4")
"y"

Could you now consider this next compound?
# input Hi, do you know how `O=C(O)c1ccccc1/C=C1\Cc2ccc3c(c2C1=O)CCCC3` came out in this test?
# output n

----------
System: SR
Experiment Notes: NCI tumour cell line growth inhibition, 48 h
Calls of active or inactive are those of the source. Cut-off read from the data, not from the text of the source: active = GI50 up to about 1.1 µM and inactive = higher.
Property Name: GI50

Please review the entries below; each comes with its answer.
>>> measurement("NC1=Nc2ccccc2Sc2nc3ccccc3n21")
"4.49 µM (inactive)"
>>> measurement("CC(=O)O[C@]1(C)CCC2C(C)C(=O)OC2C2C(C)[C@@H](O)CC21 (some centres not stated)")
"3.56 µM (inactive)"

List the reported GI50 of each compound below.
1. Oc1ccc(Cl)cc1C1=NC(NCNC2=NC(c3ccccc3)CC(c3cc(Cl)ccc3O)=N2)=NC(c2ccccc2)C1 (configuration not stated)
2. COc1ccc(/C=C2\C[C@H]3[C@@H]4CCC5=CC(=O)CC[C@]5(C)[C@H]4CC[C@]3(C)C2=O)cc1OC
3. COC(=O)C(C(=O)C(=O)Nc1ccc(C)cc1C)c1csc(-n2nc(-c3ccccc3)cc2-c2ccccc2)n1 (configuration not stated)
4. Cc1ccc(-n2cc(-c3ccc(Cl)cc3)c3c2N=CN2N=C(c4cccs4)NC32)cc1 (configuration not stated)
5. Nn1c(=O)[nH]c2ncn(Cc3ccccc3)c2c1=O
6. Cc1ccc(S(=O)(=O)n2cncc2CO)cc1
7. C[N+](C)([O-])Cc1cc(-c2ccccc2)ccc1O

# output
1: 24.9 µM (inactive); 2: 2.81 µM (inactive); 3: > 100 µM (inactive); 4: 7.64 µM (inactive); 5: > 100 µM (inactive); 6: > 100 µM (inactive); 7: 49.1 µM (inactive)

----------
System: 786-0
Experiment Notes: NCI tumour cell line growth inhibition, 48 h
Calls of active or inactive are those of the source. Cut-off read from the data, not from the text of the source: active = GI50 up to about 1.1 µM and inactive = higher.
Pick one: 1.0 = active, 0.0 = inactive

>>> cat("COC(=O)/C([Se]c1c(C)cc(C)cc1C)=C(\\[Se]c1c(C)cc(C)cc1C)C(=O)OC")
0.0
>>> cat("COCCc1c(C)c(C#N)c2n(C)c3ccccc3n2c1=O")
0.0

# input Could you kindly confirm the outcome this assay logged for COc1cc(C2CC(C)(N3CCOCC3)Oc3cc4c(cc32)OCO4)cc(OC)c1OC (stereo not drawn) ?
# output 1.0

# input Record request — test call for `COc1cc(OC)c2nc(C)c3c(c2c1)SCC3`
# output 0.0

----------
Provide the recorded GI50 for the entries that follow.
Tested on: 786-0
Experiment Notes: NCI tumour cell line growth inhibition, 48 h
Activity calls are given as the source filed them. No stated cut-off is given here; in the data, active = GI50 up to about 1.1 µM and inactive = higher.

For orientation, consider the following solved cases.
>>> measurement("O=C(c1ccco1)C1CC(c2ccc3ccccc3c2O)=NN1c1ccc([N+](=O)[O-])cc1[N+](=O)[O-] (stereo unspecified)")
"31 µM (inactive)"
>>> measurement("NCCOc1ccccn1")
"> 100 µM (inactive)"
>>> measurement("Nc1ncc2c(n1)-c1ccccc1OC2N1CCCC1 (stereo unspecified)")
"> 100 µM (inactive)"
>>> measurement("CCN1C(=O)c2cc(OC)c(OC)cc2C(=O)C12OC(=O)c1cc3c(cc12)OCO3 (stereo unspecified)")
"22.4 µM (inactive)"

Provide GI50 values for the following items, in order.
1. COC(=O)NC1(NC(=O)OC)NC(=O)c2ccccc2N1
2. c1ccc(NC2(c3nnnn3C3CCCCC3)CCNCC2)cc1
3. NC(=O)NC(=O)c1cccc(NC(=O)CF)c1
4. Cc1ccc(-n2cc(-c3ccc(Cl)cc3)c3c2N=CN2N=C(c4cccs4)NC32)cc1 (stereo unspecified)
5. N=C(N)Nc1ccc(CC(N)C(=O)NCC(=O)C(CC(=O)O)c2ncc(NC(=O)C(F)(F)F)o2)cc1 (stereo unspecified)
6. COC1(C)/C=N/CC(C)(C)NC(=O)C(C)(OC)/C=N/CC(C)(C)NC1=O (stereo unspecified)

# output
1. > 100 µM (inactive)
2. 15 µM (inactive)
3. > 100 µM (inactive)
4. 4.28 µM (inactive)
5. > 25 µM (inactive)
6. > 10 µM (inactive)
